test_target: Melatonin receptor (Homo sapiens, UniProt P48039+P49286)
assay_text: Ability to inhibit 2-[125I]iodomelatonin specific binding to human melatonin receptor type 1A (MT1) expressed in CHO cells.
Assay type: cell-based
readout: Ki (nM)

[[record]]
compound = "CCCC(=O)NCC[C@H]1CCc2ccc(OC)cc21"
meas_value = 43.7


A. CCCC(=O)NCCC1CCc2ccc(OC)cc21 (stereo not drawn)
B. COc1ccc2c(c1)C(CCNC(=O)C(F)(F)F)=C(c1ccccc1)C2
Identify the item whose Ki is the smaller number: A or B Bench note: the answer is the label of the chosen record.
B

I. COc1ccc2c(c1)C(CCNC(C)=O)CC2 (stereo not drawn)
II. COc1ccc2c(c1)[C@H](CCNC(C)=O)CC2
III. COc1ccc2c(c1)C(CCNC(=O)C(F)(F)F)C(c1ccccc1)C2 (stereo not drawn)
IV. CCCC(=O)NCC[C@@H]1CCc2ccc(OC)cc21
V. COc1ccc2c(c1)[C@@H](CCNC(C)=O)CC2
Order the entries by their reported Ki, beginning at the minimum. Ranked list of labels, please, in the requested order.
IV, II, I, III, V
(IV: 0.0321 nM, II: 0.0733 nM, I: 0.131 nM, III: 1.6 nM, V: 10.6 nM)
